Recorded values, source ChEMBL document CHEMBL1909046.

Biological target: Vasopressin V1a receptor (Homo sapiens, UniProt P37288); also: in other assays of this panel Not Active means under 50% inhibition at 10 µM
Sequence (P37288 whole entry): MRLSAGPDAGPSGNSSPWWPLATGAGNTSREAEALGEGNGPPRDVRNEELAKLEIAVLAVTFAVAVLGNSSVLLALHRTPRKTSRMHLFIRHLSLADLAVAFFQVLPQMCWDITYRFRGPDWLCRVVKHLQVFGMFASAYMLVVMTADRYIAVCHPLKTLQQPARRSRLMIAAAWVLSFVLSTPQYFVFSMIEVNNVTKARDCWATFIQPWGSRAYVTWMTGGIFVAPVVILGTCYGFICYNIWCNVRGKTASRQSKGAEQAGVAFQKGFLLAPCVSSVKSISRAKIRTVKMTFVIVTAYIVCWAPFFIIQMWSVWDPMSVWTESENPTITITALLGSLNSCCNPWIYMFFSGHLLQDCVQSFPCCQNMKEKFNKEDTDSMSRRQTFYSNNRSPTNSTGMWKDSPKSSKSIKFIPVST
Type: cell membranes, Membrane
Conditions: hek293
measure: IC50

// known answers, use as guide
# compound, IC50
rows = [
    ("O=c1[nH]c(=O)n([C@H]2C[C@H](O)[C@@H](CO)O2)cc1I [IDOXURIDINE]", "Not Active"),
    ("OC(Cn1cncn1)(Cn1cncn1)c1ccc(F)cc1F [FLUCONAZOLE]", "Not Active"),
    ("CN(C)c1nc(N(C)C)nc(N(C)C)n1 [ALTRETAMINE]", "Not Active"),
    ("CC(=O)[C@@]1(O)CC[C@H]2[C@@H]3C[C@H](C)C4=CC(=O)CC[C@]4(C)[C@H]3CC[C@@]21C", "Not Active"),
    ("CC(C)[C@H]1C(=O)N2CCC[C@H]2[C@]2(O)O[C@](NC(=O)[C@@H]3C=C4c5cccc6[nH]cc(c56)C[C@H]4N(C)C3)(C(C)C)C(=O)N12 [ERGOCORNINE]", "Not Active"),
    ("CCCCc1nc(Cl)c(CO)n1Cc1ccc(-c2ccccc2-c2nnn[nH]2)cc1 [LOSARTAN]", "Not Active"),
]

Then this compound:
Prompt: Please give the documented IC50 of C[C@H]1c2cccc(O)c2C(=O)C2=C(O)[C@]3(O)C(=O)C(C(N)=O)=C(O)[C@@H](N(C)C)[C@@H]3[C@@H](O)[C@@H]21.O [DOXYCYCLINE]
Response: Not Active
